Values were extracted from patent US20250304620A1.

System: Escherichia coli ATCC 25922
Test: Oral formulations on mice with systemic bacterial infection
Type: in vivo, ICR mice
Conditions: 0.2 mg/kg gavage, three times a day for 7 days, n = 10
Non-standard residues stand in square brackets, D forms with d. Residues, ends and D or L forms follow the SMILES beside them. dPhe(3,4-F2) = N[C@H](Cc1ccc(F)c(F)c1)C(=O)O; d2Nal = N[C@H](Cc1ccc2ccccc2c1)C(=O)O
quantityKind: Number of mice that died on each day after infection: day 7
Reply with the number, then its unit.

Previously resolved entries follow.
{"molecule": "CC(=O)N[C@H](CCCNC(=N)N)C(=O)N[C@H](CCCCN)C(=O)N[C@H](CC(C)C)C(=O)N[C@H](CC(C)C)C(=O)N[C@H](Cc1ccc(F)c(F)c1)C(=O)N[C@H](CCCCN)C(=O)N[C@H](CC(C)C)C(=O)N[C@H](CCCCN)C(=O)N[C@H](Cc1ccc(F)c(F)c1)C(=O)N[C@H](CCCCN)C(=O)N[C@H](CCCNC(=N)N)C(N)=O [LV-6] (Ac-[dR][dK][dL][dL][dPhe(3,4-F2)][dK][dL][dK][dPhe(3,4-F2)][dK][dR]-NH2)", "testedSystem": "Escherichia coli ATCC 25922", "reportedResult": "0 Mouse"}
{"molecule": "CC(=O)N[C@H](CCCNC(=N)N)C(=O)N[C@H](CCCNC(=N)N)C(=O)N[C@H](CC(C)C)C(=O)N[C@H](CC(C)C)C(=O)N[C@H](Cc1ccc2ccccc2c1)C(=O)N[C@H](CCCNC(=N)N)C(=O)N[C@H](CC(C)C)C(=O)N[C@H](CCCNC(=N)N)C(=O)N[C@H](Cc1ccc2ccccc2c1)C(=O)N[C@H](CCCNC(=N)N)C(=O)N[C@H](CCCNC(=N)N)C(N)=O [LV-1] (Ac-[dR][dR][dL][dL][d2Nal][dR][dL][dR][d2Nal][dR][dR]-NH2)", "testedSystem": "Escherichia coli ATCC 25922", "reportedResult": "0 Mouse"}

Prompt: Answer briefly: Number of mice that died on each day after infection: day 7 recorded on Escherichia coli ATCC 25922 for CC(=O)N[C@H](CCCCN)C(=O)N[C@H](CCCCN)C(=O)N[C@H](CC(C)C)C(=O)N[C@H](CC(C)C)C(=O)N[C@H](Cc1ccc2ccccc2c1)C(=O)N[C@H](CCCCN)C(=O)N[C@H](CC(C)C)C(=O)N[C@H](CCCCN)C(=O)N[C@H](Cc1ccc2ccccc2c1)C(=O)N[C@H](CCCCN)C(=O)N[C@H](CCCCN)C(N)=O [LV-17] (Ac-[dK][dK][dL][dL][d2Nal][dK][dL][dK][d2Nal][dK][dK]-NH2)
Response: 1 Mouse

* * *

Test system: Escherichia coli ATCC 25922
Experiment: Oral formulations on mice with systemic bacterial infection
Assay type: in vivo, ICR mice
Details: 0.2 mg/kg gavage, three times a day for 7 days, n = 10
Non-standard residues stand in square brackets, D forms with d. Residues, ends and D or L forms follow the SMILES beside them. dPhe(3,4-F2) = N[C@H](Cc1ccc(F)c(F)c1)C(=O)O; d2Nal = N[C@H](Cc1ccc2ccccc2c1)C(=O)O
quantityKind: Number of mice that died on each day after infection: day 7 (Mouse)
Answer in Mouse, number only, no unit symbol.

Before answering, review these 2 worked examples.
{"compound": "CC(=O)N[C@H](CCCNC(=N)N)C(=O)N[C@H](CCCCN)C(=O)N[C@H](CC(C)C)C(=O)N[C@H](CC(C)C)C(=O)N[C@H](Cc1ccc2ccccc2c1)C(=O)N[C@H](CCCCN)C(=O)N[C@H](CC(C)C)C(=O)N[C@H](CCCCN)C(=O)N[C@H](Cc1ccc2ccccc2c1)C(=O)N[C@H](CCCCN)C(=O)N[C@H](CCCNC(=N)N)C(N)=O [LV-18] (Ac-[dR][dK][dL][dL][d2Nal][dK][dL][dK][d2Nal][dK][dR]-NH2)", "readoutUnits": "Mouse", "reportedResult": 1}
{"compound": "CC(=O)N[C@H](CCCCN)C(=O)N[C@H](CCCCN)C(=O)N[C@H](CC(C)C)C(=O)N[C@H](CC(C)C)C(=O)N[C@H](Cc1ccc(F)c(F)c1)C(=O)N[C@H](CCCNC(=N)N)C(=O)N[C@H](CC(C)C)C(=O)N[C@H](CCCCN)C(=O)N[C@H](Cc1ccc(F)c(F)c1)C(=O)N[C@H](CCCNC(=N)N)C(=O)N[C@H](CCCCN)C(N)=O [LV-25] (Ac-[dK][dK][dL][dL][dPhe(3,4-F2)][dR][dL][dK][dPhe(3,4-F2)][dR][dK]-NH2)", "readoutUnits": "Mouse", "reportedResult": 2}

// below: Number of mice that died on each day after infection: day 7 requested for another compound
Prompt: Tell me Number of mice that died on each day after infection: day 7 of CC(=O)N[C@H](CCCCN)C(=O)N[C@H](CCCCN)C(=O)N[C@H](CC(C)C)C(=O)N[C@H](CC(C)C)C(=O)N[C@H](Cc1ccc2ccccc2c1)C(=O)N[C@H](CCCNC(=N)N)C(=O)N[C@H](CC(C)C)C(=O)N[C@H](CCCCN)C(=O)N[C@H](Cc1ccc2ccccc2c1)C(=O)N[C@H](CCCNC(=N)N)C(=O)N[C@H](CCCCN)C(N)=O [LV-19] (Ac-[dK][dK][dL][dL][d2Nal][dR][dL][dK][d2Nal][dR][dK]-NH2) when tested on Escherichia coli ATCC 25922.
Response: 2

* * *

MIC Escherichia coli ATCC 25922 overview
System: Escherichia coli ATCC 25922
Type: cell-based
Non-standard residues stand in square brackets, D forms with d. Residues, ends and D or L forms follow the SMILES beside them. dPhe(4-Me) = Cc1ccc(C[C@@H](N)C(=O)O)cc1; d2Nal = N[C@H](Cc1ccc2ccccc2c1)C(=O)O; d(hLeu) = CC(C)CC[C@@H](N)C(=O)O
Unit µg/mL implied. Number only.

See these solved cases before continuing.
{"molecule": "CC(=O)N[C@H](CCCNC(=N)N)C(=O)N[C@H](CCCCN)C(=O)N[C@H](CC(C)C)C(=O)N[C@H](CC(C)C)C(=O)N[C@H](Cc1ccc(C)cc1)C(=O)N[C@H](CCCCN)C(=O)N[C@H](CC(C)C)C(=O)N[C@H](CCCCN)C(=O)N[C@H](Cc1ccc(C)cc1)C(=O)N[C@H](CCCCN)C(=O)N[C@H](CCCNC(=N)N)C(N)=O [LV-11] (Ac-[dR][dK][dL][dL][dPhe(4-Me)][dK][dL][dK][dPhe(4-Me)][dK][dR]-NH2)", "reportedResult": 2}
{"molecule": "CC(=O)N[C@H](CCCNC(=N)N)C(=O)N[C@H](CCCCN)C(=O)N[C@H](CC(C)C)C(=O)N[C@H](CC(C)C)C(=O)N[C@H](Cc1ccc2ccccc2c1)C(=O)N[C@H](CCCNC(=N)N)C(=O)N[C@H](CC(C)C)C(=O)N[C@H](CCCCN)C(=O)N[C@H](Cc1ccc2ccccc2c1)C(=O)N[C@H](CCCNC(=N)N)C(=O)N[C@H](CCCNC(=N)N)C(N)=O [LV-22] (Ac-[dR][dK][dL][dL][d2Nal][dR][dL][dK][d2Nal][dR][dR]-NH2)", "reportedResult": 2}
{"molecule": "CC(=O)N[C@H](CCCNC(=N)N)C(=O)N[C@H](CCCCN)C(=O)N[C@H](C)C(=O)N[C@H](C)C(=O)N[C@H](Cc1ccc2ccccc2c1)C(=O)N[C@H](CCCNC(=N)N)C(=O)N[C@H](C)C(=O)N[C@H](CCCCN)C(=O)N[C@H](Cc1ccc2ccccc2c1)C(=O)N[C@H](CCCNC(=N)N)C(=O)N[C@H](CCCCN)C(N)=O [LV-15] (Ac-[dR][dK][dA][dA][d2Nal][dR][dA][dK][d2Nal][dR][dK]-NH2)", "reportedResult": 2}
{"molecule": "CC(=O)N[C@H](CCCNC(=N)N)C(=O)N[C@H](CCCCN)C(=O)N[C@H](CCC(C)C)C(=O)N[C@H](CCC(C)C)C(=O)N[C@H](Cc1ccc2ccccc2c1)C(=O)N[C@H](CCCNC(=N)N)C(=O)N[C@H](CCC(C)C)C(=O)N[C@H](CCCCN)C(=O)N[C@H](Cc1ccc2ccccc2c1)C(=O)N[C@H](CCCNC(=N)N)C(=O)N[C@H](CCCCN)C(N)=O [LV-14] (Ac-[dR][dK][d(hLeu)][d(hLeu)][d2Nal][dR][d(hLeu)][dK][d2Nal][dR][dK]-NH2)", "reportedResult": 2}

Prompt: Give reported MIC Escherichia coli ATCC 25922 value for CC(=O)N[C@H](CCCNC(=N)N)C(=O)N[C@H](CCCNC(=N)N)C(=O)N[C@H](CC(C)C)C(=O)N[C@H](CC(C)C)C(=O)N[C@H](Cc1ccc2ccccc2c1)C(=O)N[C@H](CCCCN)C(=O)N[C@H](CC(C)C)C(=O)N[C@H](CCCCN)C(=O)N[C@H](Cc1ccc2ccccc2c1)C(=O)N[C@H](CCCCN)C(=O)N[C@H](CCCNC(=N)N)C(N)=O [LV-24] (Ac-[dR][dR][dL][dL][d2Nal][dK][dL][dK][d2Nal][dK][dR]-NH2)
Response: 1
